Test system: pSTAT1
Measurement notes: STAT1 phosphorylation in IFN-γ stimulated HEK293 cells (western blot)
Format: cell-based
Assay context: Homo sapiens; HEK293 cells, 16 hours, 20 ng/ml IFN-γ; read-out: EC50 of pSTAT1 activation
Measured endpoint: EC50

Request: // query EC50 value for entry CC(C)CCN[C@@H]1CCc2cc(O)c(N3CC(=O)NS3(=O)=O)c(F)c2C1 [ABBV-CLS-484, reference compound]
Result: 79.7 nM

* * *

Consider the following molecules; for each one, report its IC50.
Test system: UniProtKB P17706
Measurement notes: PTP activity assay with pNPP substrate (IC50, Ki, mode of inhibition)
Assay type: biochemical
Assay context: pNPP 2 mM, pH 7.0, 25° C.; read-out: IC50, nM TC-PTP
Protocol: PTP activity was assayed using p-nitrophenyl phosphate (pNPP) as a substrate in DMG buffer (50 mM DMG. pH 7.0, 1 mM EDTA, 150 mM NaCl, 2 mM DTT, 0.1 mg/mL BSA) at 25° C. The assays were performed in 96-well plates. […] The reaction rate was measured using a SpectraMax Plus 384 Microplate Spectrophotometer (Molecular Devices). […]
Where a SMILES comes first, the peptide text is derived from it. [ ]: non-standard residue; d: D form. The star is where a group is joined. NHBn(4-(4-Me-thiazol-5-yl)) = Cc1ncsc1-c1ccc(CN*)cc1; F2Pmp = N[C@@H](Cc1ccc(C(F)(F)P(=O)(O)O)cc1)C(=O)O; Phenylacetyl(4-OH,3-OMe) = COc1cc(CC(=O)*)ccc1O; Benzoyl(3-Br,4-Me) = Cc1ccc(C(=O)*)cc1Br; Hyp = O=C(O)[C@@H]1C[C@@H](O)CN1; Tle = CC(C)(C)[C@H](N)C(=O)O; 12Ado = NCCCCCCCCCCCC(=O)O; PEG1 = NCCOCCC(=O)O
Return type: number; implicit unit nM.

Request: // query IC50 value for entry COc1cc(CC(=O)N[C@@H](Cc2ccccc2)C(=O)N[C@@H](Cc2ccc(C(F)(F)P(=O)(O)O)cc2)C(=O)N[C@@H](CCCCNC(=O)c2ccc(C)c(Br)c2)C(=O)NCCOCCC(=O)N[C@H](C(=O)N2C[C@H](O)C[C@H]2C(=O)NCc2ccc(-c3scnc3C)cc2)C(C)(C)C)ccc1O [Compound 28] ({Phenylacetyl(4-OH,3-OMe)}-F[F2Pmp]K(Benzoyl(3-Br,4-Me))[PEG1][Tle][Hyp]-{NHBn(4-(4-Me-thiazol-5-yl))})
Result: 11.2

Request: // query IC50 value for entry COc1cc(CC(=O)N[C@@H](Cc2ccccc2)C(=O)N[C@@H](Cc2ccc(C(F)(F)P(=O)(O)O)cc2)C(=O)N[C@@H](CCCCNC(=O)c2ccc(C)c(Br)c2)C(=O)NCCCCCCCCCCCC(=O)N[C@H](C(=O)N2C[C@H](O)C[C@H]2C(=O)NCc2ccc(-c3scnc3C)cc2)C(C)(C)C)ccc1O [Compound 18] ({Phenylacetyl(4-OH,3-OMe)}-F[F2Pmp]K(Benzoyl(3-Br,4-Me))[12Ado][Tle][Hyp]-{NHBn(4-(4-Me-thiazol-5-yl))})
Result: 8.9

* * *

Consider the following compounds; for each one, report its IC50.
Test system: TC-PTP (Homo sapiens)
Sequence (P17706 whole entry): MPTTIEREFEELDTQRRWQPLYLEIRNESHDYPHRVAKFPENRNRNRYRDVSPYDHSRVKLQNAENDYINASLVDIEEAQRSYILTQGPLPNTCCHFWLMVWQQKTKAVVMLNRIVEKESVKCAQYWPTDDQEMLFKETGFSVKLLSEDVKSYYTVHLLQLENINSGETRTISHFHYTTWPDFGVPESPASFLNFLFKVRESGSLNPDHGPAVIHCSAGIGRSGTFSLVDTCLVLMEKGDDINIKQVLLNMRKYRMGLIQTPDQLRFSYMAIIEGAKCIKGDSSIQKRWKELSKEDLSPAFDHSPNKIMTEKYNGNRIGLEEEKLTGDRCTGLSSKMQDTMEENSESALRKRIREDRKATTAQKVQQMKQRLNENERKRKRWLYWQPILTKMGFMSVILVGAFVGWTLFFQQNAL
Measurement notes: PTP activity assay with pNPP substrate (IC50, Ki, mode of inhibition)
Format: biochemical
Assay context: pNPP 2 mM, pH 7.0, 25° C.; read-out: IC50, nM TC-PTP
Description: PTP activity was assayed using p-nitrophenyl phosphate (pNPP) as a substrate in DMG buffer (50 mM DMG. pH 7.0, 1 mM EDTA, 150 mM NaCl, 2 mM DTT, 0.1 mg/mL BSA) at 25° C. The assays were performed in 96-well plates. […] The reaction rate was measured using a SpectraMax Plus 384 Microplate Spectrophotometer (Molecular Devices). […]
*1 amine or outer side, *2 acyl side, *3 side chain or, on linkers, in order; H or OH if unused. Where a SMILES comes first, the peptide text is derived from it. [ ]: non-standard residue; d: D form. The star is where a group is joined. NHBn(4-(4-Me-thiazol-5-yl)) = Cc1ncsc1-c1ccc(CN*)cc1; F2Pmp = N[C@@H](Cc1ccc(C(F)(F)P(=O)(O)O)cc1)C(=O)O; Phenylacetyl(4-OH,3-OMe) = COc1cc(CC(=O)*)ccc1O; Benzoyl(3-Br,4-Me) = Cc1ccc(C(=O)*)cc1Br; NH(CH2)9CO = O=C(CCCCCCCCCN[*:1])[*:2]; Hyp = O=C(O)[C@@H]1C[C@@H](O)CN1; dHyp = O=C(O)[C@H]1C[C@H](O)CN1; dTle = CC(C)(C)[C@@H](N)C(=O)O; Tle = CC(C)(C)[C@H](N)C(=O)O; Ava = NCCCCC(=O)O
Return type: number; implicit unit nM.

Request: // query IC50 value for entry COc1cc(CC(=O)N[C@@H](Cc2ccccc2)C(=O)N[C@@H](Cc2ccc(C(F)(F)P(=O)(O)O)cc2)C(=O)N[C@@H](CCCCNC(=O)c2ccc(C)c(Br)c2)C(=O)NCCCCCCCCCC(=O)N[C@H](C(=O)N2C[C@H](O)C[C@H]2C(=O)NCc2ccc(-c3scnc3C)cc2)C(C)(C)C)ccc1O [Compound 14] ({Phenylacetyl(4-OH,3-OMe)}-F[F2Pmp]K(Benzoyl(3-Br,4-Me))[NH(CH2)9CO][Tle][Hyp]-{NHBn(4-(4-Me-thiazol-5-yl))})
Result: 6.8

Request: // query IC50 value for entry COc1cc(CC(=O)N[C@@H](Cc2ccccc2)C(=O)N[C@@H](Cc2ccc(C(F)(F)P(=O)(O)O)cc2)C(=O)N[C@@H](CCCCNC(=O)c2ccc(C)c(Br)c2)C(=O)NCCCCC(=O)N[C@@H](C(=O)N2C[C@@H](O)C[C@@H]2C(=O)NCc2ccc(-c3scnc3C)cc2)C(C)(C)C)ccc1O [Compound 6] ({Phenylacetyl(4-OH,3-OMe)}-F[F2Pmp]K(Benzoyl(3-Br,4-Me))[Ava][dTle][dHyp]-{NHBn(4-(4-Me-thiazol-5-yl))})
Result: 34.3
